kd mutant/kd wt by entry:
Target: T1, human TGFβ2 (human, UniProt P61812 303-414)
T1 construct: also called TGFβ2 homodimer
T1 sequence: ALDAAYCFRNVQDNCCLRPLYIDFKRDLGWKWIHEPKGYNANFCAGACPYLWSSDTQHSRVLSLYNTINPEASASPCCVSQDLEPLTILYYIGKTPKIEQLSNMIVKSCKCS
Assay: Biacore off-rate vs wt GC1008

binder | kd mutant/kd wt
S30W (antibody, V domains shown, GC1008 IgG4 variant) VH: QVQLVQSGAEVKKPGSSVKVSCKASGYTFWSNVISWVRQAPGQGLEWMGGVIPIVDIANYAQRFKGRVTITADESTSTTYMELSSLRSEDTAVYYCASTLGLVLDAMDYWGQGTLVTVSS VL: ETVLTQSPGTLSLSPGERATLSCRASQSLGSSYLAWYQQKPGQAPRLLIYGASSRAPGIPDRFSGSGSGTDFTLTISRLEPEDFAVYYCQQYADSPITFGQGTRLEIK | 0.4
D56R (antibody, V domains shown, GC1008 IgG4 variant) VH: QVQLVQSGAEVKKPGSSVKVSCKASGYTFSSNVISWVRQAPGQGLEWMGGVIPIVRIANYAQRFKGRVTITADESTSTTYMELSSLRSEDTAVYYCASTLGLVLDAMDYWGQGTLVTVSS VL: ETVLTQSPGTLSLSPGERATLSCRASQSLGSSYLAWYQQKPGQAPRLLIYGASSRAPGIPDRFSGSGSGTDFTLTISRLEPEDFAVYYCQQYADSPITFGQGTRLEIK | 0.8
E74L (antibody, V domains shown, GC1008 IgG4 variant) VH: QVQLVQSGAEVKKPGSSVKVSCKASGYTFSSNVISWVRQAPGQGLEWMGGVIPIVDIANYAQRFKGRVTITADLSTSTTYMELSSLRSEDTAVYYCASTLGLVLDAMDYWGQGTLVTVSS VL: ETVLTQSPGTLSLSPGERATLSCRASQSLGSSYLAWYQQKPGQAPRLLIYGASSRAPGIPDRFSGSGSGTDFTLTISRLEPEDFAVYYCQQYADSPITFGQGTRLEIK | 0.6
